Reference for the values: PubChem BioAssay

Each entry below carries its recorded inhibition.
Biological target: Lethal factor (Bacillus anthracis) (UniProt P15917)
Test: Lethal factor protease inhibitors, Bacillus anthracis, multiplex microsphere cleavage assay, validation set (AID 588461)
Details: flow cytometry, at 10 µM, active compounds read high

[
  {
    "compound": "COc1ccc(CNC(=O)c2cc3c(=O)n4ccccc4nc3n(Cc3cccnc3)c2=N)cc1",
    "inhibition / %": -1.9
  },
  {
    "compound": "COc1ccc2c(c1)c(CC(=O)O)c(C)n2C(=O)c1ccc(Cl)cc1",
    "inhibition / %": -4.2
  },
  {
    "compound": "COc1ccc(/C=C/C(=O)Nc2ccccc2C(=O)O)cc1OC",
    "inhibition / %": -6
  },
  {
    "compound": "OC[C@H]1O[C@@H](n2cnc3c(Nc4ccccc4)ncnc32)[C@H](O)[C@@H]1O",
    "inhibition / %": -2.1
  },
  {
    "compound": "COC(=O)c1ccc(NC(=O)c2ccccc2SC)cc1",
    "inhibition / %": -5.4
  },
  {
    "compound": "Cc1ccc2c(c1)C(O)(CC(=O)/C=C/C=C/c1ccccc1)C(=O)N2 (stereo unspecified)",
    "inhibition / %": -8.4
  },
  {
    "compound": "COc1cc(NC(=S)NC(=O)c2cccs2)ccc1NC(=O)C(C)C",
    "inhibition / %": -4
  },
  {
    "compound": "O=c1c2ccccc2[se]n1-c1ccccc1",
    "inhibition / %": -9.3
  },
  {
    "compound": "Cc1ccc2c(ccc(=S)n2C)c1",
    "inhibition / %": 7.4
  },
  {
    "compound": "CN/C(=C/[N+](=O)[O-])NCCSCc1ccc(CN(C)C)o1",
    "inhibition / %": -7.4
  },
  {
    "compound": "CCc1nc2ccccc2c(NC(=O)CN2CC(C)CC(C)C2)c1C (stereo unspecified)",
    "inhibition / %": 0.9
  },
  {
    "compound": "CCCc1c(OCCCCc2nn[nH]n2)ccc(C(C)=O)c1O",
    "inhibition / %": -10.3
  },
  {
    "compound": "O=C1Cc2ccccc2C(c2ccccc2)N1 (stereo unspecified)",
    "inhibition / %": -3.1
  },
  {
    "compound": "COc1ccc2c(c1)CC[C@@H]1[C@@H]2CC[C@]2(C)C(=O)CC[C@@H]12",
    "inhibition / %": -5
  },
  {
    "compound": "CC(C)[C@H]1CN(C)CCN1Cc1cn(C)nc1-c1cccc(Cl)c1",
    "inhibition / %": 8.2
  },
  {
    "compound": "Cc1ccc2c(c1C)NC(C(=O)O)C1CC=CC21 (stereo unspecified)",
    "inhibition / %": -13.2
  },
  {
    "compound": "CCN(CC)c1ccc([C@H]2[C@@H]3CCCC[C@]3(O)CCN2CC(=O)NCc2ccco2)cc1",
    "inhibition / %": -7.7
  },
  {
    "compound": "N/C(=N\\OC(=O)CCCOc1ccc(Cl)cc1Cl)c1ccncc1",
    "inhibition / %": 1
  },
  {
    "compound": "COc1cc2c(cc1OC)CN(C(=O)c1ccc(S(=O)(=O)N(C)c3ccccc3)cc1)CC2",
    "inhibition / %": 3.4
  },
  {
    "compound": "COc1ccc(OC)c([C@@H](O)[C@H](C)NC(C)(C)C)c1",
    "inhibition / %": 1.4
  },
  {
    "compound": "COc1ccc(CCNC(=O)c2c(O)c3c([nH]c2=O)CCCC3)cc1",
    "inhibition / %": -14.2
  },
  {
    "compound": "Cc1ccc(C2CC(=O)C(C=NCCN3CCN(C(=S)Nc4ccccc4)CC3)=C(O)C2)cc1 (stereo unspecified)",
    "inhibition / %": 5.4
  },
  {
    "compound": "Nc1ccc(S(N)(=O)=O)cc1N",
    "inhibition / %": -20
  },
  {
    "compound": "Cc1ccc(CN2CCN(Cc3cn[nH]c3C3CCCCC3)CC2CCO)cc1 (stereo unspecified)",
    "inhibition / %": -2.1
  },
  {
    "compound": "Cc1cc(OC(C(=O)O)c2ccccc2)c2c(C)c(Cc3ccccc3)c(=O)oc2c1 (stereo unspecified)",
    "inhibition / %": 1.7
  },
  {
    "compound": "CCSc1nc(O)c(C2OC(=O)c3c2ccc(OC)c3OC)c(=O)n1CC (stereo unspecified)",
    "inhibition / %": -2.4
  },
  {
    "compound": "COc1ccc(OCc2cccc(C(=O)NN)c2)cc1",
    "inhibition / %": -6.1
  },
  {
    "compound": "CC(=O)[C@H]1CC[C@H]2[C@@H]3CCC4=CC(=O)CC[C@]4(C)[C@H]3[C@H](O)C[C@]12C",
    "inhibition / %": -5.3
  },
  {
    "compound": "COc1ccc(-c2nc3ccccc3c(=O)o2)cc1",
    "inhibition / %": 0.8
  },
  {
    "compound": "CCc1nc2ccccc2n1Cc1ccc(OC)c(OC)c1",
    "inhibition / %": 0.6
  },
  {
    "compound": "N#CCC(N)=C(C#N)C#N",
    "inhibition / %": -6
  },
  {
    "compound": "CCOC(=O)c1ccc(N2C(=O)C(CC(N)=O)N(CCc3ccc(OC)c(OC)c3)C2=S)cc1 (stereo unspecified)",
    "inhibition / %": -0.3
  },
  {
    "compound": "Cc1ccc(NCCC(=O)c2ccccc2)cc1Cl",
    "inhibition / %": -2.5
  },
  {
    "compound": "COc1ccc(C)cc1S(=O)(=O)Nc1ccc(F)cc1",
    "inhibition / %": 0.5
  },
  {
    "compound": "CC(=O)N=c1sc(S(N)(=O)=O)nn1C",
    "inhibition / %": 4.2
  },
  {
    "compound": "COc1cccc2c(=O)c3ccccc3oc12",
    "inhibition / %": -4.2
  },
  {
    "compound": "COc1ccc(-c2c(C)c3ccc(OCC(C)=O)cc3oc2=O)cc1",
    "inhibition / %": 1.2
  },
  {
    "compound": "C[C@]12C[C@H](O)[C@H]3[C@@H](CCC4=CC(=O)CC[C@@]43C)[C@@H]1CC[C@@H]2C(=O)CO",
    "inhibition / %": -9.2
  },
  {
    "compound": "CC(C)=CCCC(C)CN1CCC(N2CCC(C(=O)N3CCCC3)CC2)CC1 (stereo unspecified)",
    "inhibition / %": -1.1
  },
  {
    "compound": "CCN(CC)C1=C(Cl)C(=O)C(Cl)C12OCCO2 (stereo unspecified)",
    "inhibition / %": -1
  },
  {
    "compound": "Cc1ccc2c(c1)C(O)(c1c(C)[nH]c3ccccc13)C(=O)N2 (stereo unspecified)",
    "inhibition / %": -10
  },
  {
    "compound": "CCOc1ccc(N2C(=O)CC(NCCNc3ccc([N+](=O)[O-])cn3)C2=O)cc1 (stereo unspecified)",
    "inhibition / %": -3.4
  },
  {
    "compound": "C[C@H](NC(=O)Nc1ccccc1F)C(=O)O",
    "inhibition / %": -3.2
  },
  {
    "compound": "COc1cc(SC)ccc1C(=O)NC(C)C",
    "inhibition / %": 0.8
  },
  {
    "compound": "Cc1nc(N)sc1C(=O)N/N=C/c1ccco1",
    "inhibition / %": 0.8
  },
  {
    "compound": "CC(C)(C)[C@]1(O)CCN2C[C@H]3c4ccccc4CCc4cccc(c43)[C@@H]2C1",
    "inhibition / %": -2.4
  }
]
